# assay_summary: LTEA_HepaRG_LDH_cytotoxicity: Cytotoxicity Assessment in the Life Technologies and Expression Analysis (LTEA) Assay (AID 2283563)
Activity calls are given as the source filed them. How the source made its calls: active means hit-call score of the fitted dose curve at least 0.9, where 1 is the maximum; inconclusive means response in the unintended direction; inactive means score below 0.9.
Outcomes: active, inactive

> print(dat)
                                    molecule  qualitative.label
 1           COP(N)(=O)SC (stereo not drawn)           inactive
 2  Cc1c(F)c(F)c(COC(=O)C2C(/C=C(\Cl)C(F)(F)F)C2(C)C)c(F)c1F (stereo not drawn)           inactive
 3  COC(=O)N(OC)c1ccccc1COc1ccn(-c2ccc(Cl)cc2)n1             active
 4                     Cc1cc(Cl)ccc1OCC(=O)O           inactive
 5                      CNC(=O)ON=CC(C)(C)SC           inactive
 6                O=C(O)COc1nc(Cl)c(Cl)cc1Cl           inactive
 7                          CCCCNC(=O)OCC#CI           inactive
 8                                  CNC(=S)S           inactive
 9  C=CCC1=C(C)C(OC(=O)C2C(C=C(C)C)C2(C)C)CC1=O (stereo not drawn)           inactive
10              CCCCOC(=O)c1ccccc1C(=O)OCCCC           inactive
11  OC(c1ccc(Cl)cc1)(c1cncnc1)c1ccccc1Cl (stereo not drawn)             active
12  CS/C(C)=N/OC(=O)N(C)SN(C)C(=O)O/N=C(\C)SC           inactive
13         CCCCNC(=O)n1c(NC(=O)OC)nc2ccccc21           inactive

----------
# assay_summary: CCTE_Mundy_HCI_Cortical_Synap_Neur_Matur_BPCount: CCTE's Synaptogenesis and Neurite Maturation Assay in rat cortical cells for Branch Point Count, Mundy Lab (AID 2284211)
The source made the active and inactive calls. The calls were made as follows: active = hit-call score of the fitted dose curve at least 0.9, where 1 is the maximum; inactive = score below 0.9.
Outcomes: Yes for active, No for inactive

> print(dat)
                                   compound  qualitative.label
1  CC(C)(C)c1ccc(CSc2cnn(C(C)(C)C)c(=O)c2Cl)cc1                Yes
2         CCCCNC(=O)n1c(NC(=O)OC)nc2ccccc21                Yes
3  CCCCC(CC)COC(=O)c1ccccc1C(=O)OCC(CC)CCCC (stereo not drawn)                Yes
4  C=CCC1=C(C)[C@@H](OC(=O)[C@@H]2[C@@H](C=C(C)C)C2(C)C)CC1=O                Yes
5                    CN(C)C(=S)SSC(=S)N(C)C                Yes
6  N#Cc1nn(-c2c(Cl)cc(C(F)(F)F)cc2Cl)c(N)c1S(=O)C(F)(F)F (stereo not drawn)                 No
7  COC(=O)N(OC)c1ccccc1COc1ccn(-c2ccc(Cl)cc2)n1                Yes
8  C=CCC1=C(C)C(OC(=O)C2C(C=C(C)C)C2(C)C)CC1=O (stereo not drawn)                 No
